- method: NCI Yeast Anticancer Drug Screen. Data for the rad50 strain (AID 155);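 also: 0% = growth of vehicle-only cultures of the same strain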
- measurementParameters: S. cerevisiae rad50 strain growth inhibition; at 50.0 µM; hits give high values
About 79,000 compounds went through this panel and 15% of them were active in at least one assay; those are over-represented in the sample as a whole.
I would appreciate it if you labelled entries satisfied when growth inhibition is 90% or higher, otherwise not satisfied.

Previously resolved entries follow.
> print(dat)
                                 chemsmiles     labelvalue
1  O=C(NNc1ccnc2cc(Cl)ccc12)/C(=C\c1ccccc1Cl)NC(=O)c1ccccc1  not satisfied
2  COc1ccccc1N=NC(C(=O)c1ccccc1)C(=O)c1ccccc1      satisfied
3  COP(=O)(OC)/C(=C\C1=CN(C(c2ccccc2)(c2ccccc2)c2ccccc2)CN1)NC=O      satisfied

Problem: Is growth inhibition at least 90%? Consider O=C1C=CC(=Nc2ccc3c(c2)Cc2cc(NC(=O)C(F)(F)F)ccc2-3)O1
Solution: not satisfied

Problem: Is growth inhibition at least 90%? Consider COc1ccccc1/C=C1\Sc2scc(-c3cccc([N+](=O)[O-])c3)[n+]2C1=O
Solution: not satisfied

* * *

- method: NCI Yeast Anticancer Drug Screen. Data for the rad50 strain (AID 155);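 also: 0% = growth of vehicle-only cultures of the same strain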
- measurementParameters: S. cerevisiae rad50 strain growth inhibition; at 100.0 µM; hits give high values
About 79,000 compounds went through this panel and 15% of them were active in at least one assay; those are over-represented in the sample as a whole.
In this section we review reported growth inhibition values for a set of compounds.
The answer is to be given in %; state only the numeric part.

Some solved entries appear below for comparison.
> print(dat)
                                   compound  reportedvalue
1  O=[N+]([O-])c1ccc([N+]2=NC(c3ccccc3)=NN(c3ccccc3)C2)cc1             63
2  N#C/C(=C\c1cccc(OCc2ccccc2)c1)c1ccc([N+](=O)[O-])cc1            -23
3  O=C1CSC(/C=C/c2ccccc2)N1c1ccc(-c2ccc(-n3c(-c4ccccc4)nc4ccccc4c3=O)cc2)cc1 (stereo unspecified)             58

Problem: So what's the measured growth inhibition for this one? O=C1c2ccccc2C(=O)c2cc(CBr)ccc21
Solution: 92

Problem: So what's the measured growth inhibition for this one? COc1ccccc1N=NC(C(=O)c1ccccc1)C(=O)c1ccccc1
Solution: 96

Problem: So what's the measured growth inhibition for this one? CSc1nc(=S)[nH]c2c1c(C)nn2-c1ccccc1
Solution: 11

* * *

- method: NCI Yeast Anticancer Drug Screen. Data for the rad52 strain (AID 147);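 also: 0% = growth of vehicle-treated control cultures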
- measurementParameters: S. cerevisiae rad52 mutant growth inhibition; at 3.7 µM
Compounds without any hit were thinned out: in the full panel of roughly 79,000, 15% have a hit. Activity calls are given as the source filed them. No stated cut-off is given here; in the data, active means growth inhibition above about 70%; inactive means the rest.
Write down the outcome that applies. Available outcomes: true = active, false = inactive

Previously resolved entries follow.
> print(dat)
                                   molecule  labelvalue
1          NC(N)=N/N=C\c1c2ccccc2cc2ccccc12       false
2  COC(=O)C1=C(C)NC(C)=C(C(=O)OC)C1c1cccc(/[N+]([O-])=C/c2ccccc2)c1       false
3    CC(=O)N/N=C/C(C)(C)C(C)(C)/C=N/NC(C)=O       false
4  C[CH2][Sn]([CH2]C)([O]C(=O)C(OC(C)=O)c1ccccc1)[O]C(=O)C(OC(C)=O)c1ccccc1 (centres undefined)       false

Problem: Test call, this molecule: O=C1c2cc([N+](=O)[O-])ccc2-c2cccc(F)c21
Solution: false

Problem: Test call, this molecule: NC1=NS(=O)(=O)N=C(N)C1=Cc1ccc([N+](=O)[O-])o1
Solution: false

Problem: Test call, this molecule: CN(N=O)N1C(=O)SCC(c2ccccc2)(c2ccccc2)C1=O
Solution: false

* * *

- method: NCI Yeast Anticancer Drug Screen. Data for the rad18 strain (AID 177)
- measurementParameters: S. cerevisiae rad18 mutant growth inhibition; at 3.7 µM; hits give high values
The panel holds about 79,000 compounds, 15% with a hit somewhere; the sample as a whole holds those more often.
In this section we review reported growth inhibition values for a set of compounds.
The answer is to be given in %; state only the numeric part.

Some solved entries appear below for comparison.
> print(dat)
                                   compound  reportedvalue
1  O=C(OCCN1CCCCCC1)C(c1ccsc1)C1CCCCC1 (stereo not drawn)             18
2  C/C(=N\O)C1CC2C=C(C#N)C1N(Cc1ccccc1)C2 (stereo not drawn)             13
3  O=C1C2C(C(=O)N1c1ccc(OCc3ccccc3)cc1)C1c3ccccc3C2C2CCCCN21 (stereo not drawn)             12
4              O=C(O)c1ccccc1NC(=S)c1ccccc1             -4
5    S=C(N/N=C(/c1ccccc1)c1ccccn1)N1CCCCCC1             20
6  COc1ccc(/C=C2\SC(=S)N(/C=C/c3nc4ccccc4[nH]c3=O)C2=O)cc1OC             20
7              N#CN=Nc1cc(Cl)c(N=NC#N)cc1Cl            -16

Next, consider the following compound.
Problem: So what's the measured growth inhibition for this one? O=C(/C=C\c1ccc(Cl)cc1Cl)c1cccs1
Solution: 6

* * *

- method: NCI Yeast Anticancer Drug Screen. Data for the rad52 strain (AID 147);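 also: 0% = growth of vehicle-treated control cultures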
- measurementParameters: S. cerevisiae rad52 mutant growth inhibition; at 33.0 µM; hits give high values
Compounds without any hit were thinned out: in the full panel of roughly 79,000, 15% have a hit.
// thresholds for growth inhibition classes: small value (below 20%), mid value (20% to below 90%), large value (90% or more)

compound	labelValue
O=[N+]([O-])c1cc2no[n+]([O-])c2cc1N1CCCCC1	large value
N#Cc1ccc(C2NN=CC23C(=O)c2ccccc2OC3c2ccccc2)cc1 (stereo not given)	small value
COc1cc(C2SCC(=O)N2c2nnc(C(F)(F)F)s2)cc(OC)c1OC (stereo not given)	small value
Oc1c(Br)cc(Br)cc1C1CCCCC1	large value
COc1ccc(-c2cn(-c3ccc(I)cc3)c3ncnc(N)c23)cc1	small value
CC(=O)Oc1ccc2c(c1)Cc1cc(N=C3C=CC(=O)O3)ccc1-2	large value
CCOC(=O)c1cc([N+](=O)[O-])cc([N+](=O)[O-])c1Sc1ncnc2nc[nH]c12	mid value
COC1C=COC2(C)Oc3c(C)c(O)c4c(c3C2=O)/C(=N/C2CCC(O)OC2C)C=C(NC(=O)/C(C)=C\C(=O)C2CC2C(O)C(C)C(O)C(C)C(OC(C)=O)C1C)C4=O (stereo not given)	small value
O=[N+]([O-])/C=C/c1ccc2ccccc2c1	large value
OC1(c2ccccc2)CSC2=Nc3ccccc3C3CCN1N23 (stereo not given)	small value

Problem: Which category does the recorded growth inhibition put CC(C)/C(Cl)=N\OC(=O)Nc1ccccc1F in?
Solution: mid value

Problem: Which category does the recorded growth inhibition put Oc1ccc2ccccc2c1C(c1ccc(Cl)cc1)c1c(O)ccc2ccccc12 in?
Solution: mid value

Problem: Which category does the recorded growth inhibition put COC(=O)C1=C(C(=O)OC)C2(C)C=CC1O2 (stereo not given) in?
Solution: mid value

* * *

- method: NCI Yeast Anticancer Drug Screen. Data for the mgt1 strain (AID 153)
- measurementParameters: S. cerevisiae mgt1 mutant growth inhibition; at 100.0 µM; hits give high values
This is part of a sample that, as a whole, favours compounds with a hit. Of some 79,000 tested, about 15% had one in any assay.
measurementLabel: growth inhibition (%)
The answer is to be given in %; state only the numeric part.

> print(dat)
                                   compound   measurementlabel  units  reportedvalue
1  O=[N+]([O-])c1cccc2nc3ccccc3c(NCCCN3CCOCC3)c12  growth inhibition      %             98

Problem: So what's the measured growth inhibition for this one? CCOC(=O)c1cc([N+](=O)[O-])cc([N+](=O)[O-])c1Sc1ncnc2nc[nH]c12
Solution: 98

Problem: So what's the measured growth inhibition for this one? O=[N+]([O-])c1ccc2nc3ccccc3cc2c1
Solution: 86

* * *

In this section we review reported growth inhibition values for a set of compounds.
- method: NCI Yeast Anticancer Drug Screen. Data for the cln2 rad14 strain (AID 165);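 also: 0% = growth equal to vehicle treated cultures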
- measurementParameters: S. cerevisiae cln2 rad14 strain, at 50.0 µM (retest, dose inferred, filed as 5.0), hits give high values
- Procedure: Growth inhibition of yeast strains with defined genetic alterations is measured as a screen for potential anti-cancer activity. Selected strains with alterations in DNA damage repair or cell cycle control were exposed to compounds and growth inhibition was measured relative to vehicle treated controls. The strain used in this assay is cln2 rad14
About 79,000 compounds went through this panel and 15% of them were active in at least one assay; those are over-represented in the sample as a whole. Active and inactive are the calls of the source. Rule as the data show it: active = growth inhibition above about 70%; inactive = the rest.

Some solved entries appear below for comparison.
> print(dat)
                                    compound    reportedvalue
 1  CC(CC(C)(C)[N+](C)(C)C)[N+](C)(C)C (stereo unspecified)     95% (active)
 2  CN(C)Cc1cc(N=Nc2ccc(Cl)cc2)cc(CN(C)C)c1O     98% (active)
 3   Cc1ccc(S(=O)(=O)Oc2cc(Cl)c(Cl)cc2Cl)cc1    3% (inactive)
 4            Cc1nc(-c2ccccc2)c(-c2ccccc2)s1    101% (active)
 5                         CCCCCCCCCCC(=O)Cl   58% (inactive)
 6  COP(=O)(OC)/C(=C\C1=CN(C(c2ccccc2)(c2ccccc2)c2ccccc2)CN1)NC=O    7% (inactive)
 7  OC(COc1cccc2ccccc12)CN1CCOCC1 (stereo unspecified)   59% (inactive)
 8  CCOC(=O)C(NC(=O)c1ccccc1)(N1CCN(c2cc3c(cc2F)c(=O)c(C(=O)O)cn3C2CC2)CC1)C(F)(F)F (stereo unspecified)  -13% (inactive)
 9                  O=C1Nc2ccc(Cl)c(I)c2C1=O   32% (inactive)
10  O=[N+]([O-])c1ccc([N+]2=NC(c3ccccc3)=NN(c3ccccc3)C2)cc1   20% (inactive)

Problem: So what's the measured growth inhibition for this one? COc1ccc2ccc3ccccc3c2c1C=O
Solution: 16% (inactive)

Problem: So what's the measured growth inhibition for this one? c1ccc2c(c1)-c1nc3ccccc3cc1C2N1CCOCC1 (stereo unspecified)
Solution: 13% (inactive)

Problem: So what's the measured growth inhibition for this one? CCCCCCCCCCCCCCC(C(=O)[O-])[n+]1ccccc1 (stereo unspecified)
Solution: 26% (inactive)
